B1: KCNA1 (parent)
chain: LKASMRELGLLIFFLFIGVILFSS

# Variants of: B1
# assay_notes: protein stability index of a GFP-peptide fusion (GPS, HEK-293T) (PSI 1-6); higher = more stable;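 further: lentivirally expressed fusions sorted by FACS into six bins by GFP to DsRed ratio, PSI derived from sequencing read proportions per bin multiplied by bin number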
# measurement_setup: c terminus: a fixed tail appended
Threshold check on protein stability index: at or above 2 gives Met, strictly below gives Not met.

Some solved entries appear below for comparison.
L1S    Not met
L21H    Met
L10F    Met

Can R6P be said to have protein stability index at or above 2?
Met

Try F22I next.
Met

Try A3F next.
Not met
